targetSystem: EPHA2 (human)
assayProtocol: radiometric filter-binding kinase assay
measurementSetup: compound 1.0 µM
Returns: string. Value is met if measured residual activity is below 90%, and not met if it is greater than or equal to it.

Solved cases (6 shown):
compound: O=C(N[C@@H](COc1ccc2[nH]c(=O)[nH]c2c1)c1ccccc1)c1cccn(Cc2ccc(F)c(F)c2)c1=O
targetSystem: EPHA2 (human)
labelValue: not met

compound: O=C(Nc1nc2cc(C(F)(F)F)cc(NC3CC3)n2n1)c1cccnc1
targetSystem: EPHA2 (human)
labelValue: not met

compound: O=C1Nc2nc(-c3c(O)cccc3OCC3CC3)cc(C3CCCNC3)c2CO1 (stereo not given)
targetSystem: EPHA2 (human)
labelValue: not met

compound: CC(C)(C#N)c1ccc(N2C(=O)OCc3cnc4ccc(-c5cnc6ccccc6c5)cc4c32)cc1
targetSystem: EPHA2 (human)
labelValue: met

compound: NC(=O)c1cc(-c2ccnc(NC3CCCCC3)c2)nc(N2CCNCC2)c1
targetSystem: EPHA2 (human)
labelValue: not met

compound: COc1ccc(N(C(=O)Nc2c(C)cccc2C)c2cc(Nc3ccc(N4CCN(C)CC4)cc3)ncn2)c(OC)c1
targetSystem: EPHA2 (human)
labelValue: met

Determine whether this compound shows residual activity lower than 90% (ties excluded): CC1=C(CO)C(=O)O[C@@H]([C@@H](C)[C@H]2CC[C@H]3[C@@H]4C[C@H]5O[C@]56[C@@H](O)C=CC(=O)[C@]6(C)C4CC[C@]23C)C1 (stereo not given in full) not met

Determine if CNC(=O)C1[C@H]2O[C@@](C)([C@@H]1N)n1c3ccccc3c3c4c(c5c6ccccc6n2c5c31)C(=O)NC4 (stereo not given in full) shows residual activity strictly lower than 90%. met

====

targetSystem: PKN2 (human)
assayProtocol: radiometric filter-binding kinase assay
measurementSetup: compound 10.0 µM
I'd be grateful if you could share measured residual activity for these entries.
One number for each entry, in %.

Could I get residual activity for every one of these entries?
1. Cn1nc(Nc2ccc(F)cc2)c2c(N)ncnc21
2. CC(C)C[C@H](NC(=O)CNC(=O)c1cc(Cl)ccc1Cl)B1OC(=O)CC(CC(=O)O)(C(=O)O)O1 (some centres not stated)

1: 109; 2: 86

Dear colleague, could you please provide residual activity for the molecules listed below?
1. CN1C(=O)[C@@H](Cc2c[nH]c3ccccc23)NC1=S
2. NS(=O)(=O)OC[C@@H]1C[C@@H](n2ccc3c(N[C@H]4CCc5ccccc54)ncnc32)C[C@@H]1O
3. N#Cc1c(O)c2c(-c3ccc(-c4ccccc4O)cc3)csc2[nH]c1=O
4. NC1(c2ccc(-c3nc4ccn5c(=O)[nH]nc5c4cc3-c3ccccc3)cc2)CCC1
5. CCCC(CCC)C(=O)O

1: 90; 2: 92; 3: 85; 4: 92; 5: 106

Give residual activity for each listed item.
1. COc1cc(C(=O)N2CCOCC2)c(F)cc1Nc1ncc(C(F)(F)F)c(NC2CC2)n1
2. Cc1cccc(Nc2nn(C)c3ncnc(N)c23)c1
3. Nc1cccc2c1CN(C1CCC(=O)NC1=O)C2=O (configuration not stated)
4. Cc1ccc2c(c1)C(=O)[C@@]1(O)CCN(c3ccccc3)C1=N2
5. Cc1ccc(-c2ccc3c(ccc4sc5c(c43)NC[C@@H](C)NC5=O)n2)cn1
6. O=C(O)c1ccc(-c2c[nH]c3ncc(-c4ccccc4)cc23)cc1C1CCCC1
7. CC(C)(C#N)c1ccc(N2C(=O)OCc3cnc4ccc(-c5cnc6ccccc6c5)cc4c32)cc1

1: 82; 2: 110; 3: 88; 4: 95; 5: 81; 6: 5; 7: 84

Please give residual activity for each item listed below.
1. Oc1ccc2ccccc2c1SSc1c(O)ccc2ccccc12
2. NC(=O)c1cc(-c2ccnc(NC3CCCCC3)c2)nc(N2CCNCC2)c1

1. 87
2. 19

Value sought for every listed molecule: residual activity.
1. O=C(Nc1ccccc1-c1cn2c(CN3CCNCC3)csc2n1)c1cnc2ccccc2n1
2. c1ccc2c(-c3cnn4cc(-c5ccc(N6CCNCC6)cc5)cnc34)ccnc2c1
3. Cc1ccc(=O)n(-c2ccccc2)c1
4. CNc1nc(-c2ccc3c(N)n[nH]c3c2)cc(N2C[C@@H](C(=O)NC3CCCCC3)CC[C@H]2C)n1
5. O=C(Nc1cccnc1)c1cc(-c2ccnc(F)c2)ccc1OCc1ccccc1
6. CCc1cncnc1N1CCN(Cc2nc3cc(C(F)(F)F)ccc3[nH]2)CC1

[104, 37, 91, 81, 79, 84]

Cited source: the kinase profiling compilation of Christmann-Franck et al. (2016)
